# measurement.notes: Concentration maxima after oral dosing in dogs
# Format: ADME, organism-based, Canis lupus familiaris
# Set-up: route oral
# assay.context: dog, in vivo
Attribute: Cmax
Write it as a number; the unit nM goes unstated.

These solved cases illustrate the format of a correct answer.
• CC(C)(C)NC(=O)[C@@H]1CN(Cc2c(F)cccc2F)CCN1C[C@@H](O)C[C@@H](Cc1cccnc1)C(=O)N[C@H]1c2ccccc2C[C@H]1O = 1010
• CC(C)(C)NC(=O)[C@@H]1CN(Cc2cc3ccsc3s2)CCN1C[C@@H](O)C[C@@H](Cc1ccncc1)C(=O)N[C@H]1c2ccccc2C[C@H]1O = 1730

Attention now turns to another entry.
**Q:** I would be grateful if you could share the reported Cmax for CC(C)(C)NC(=O)[C@@H]1CN(Cc2cc3ccsc3s2)CCN1C[C@@H](O)C[C@@H](Cc1cccnc1)C(=O)N[C@H]1c2ccccc2C[C@H]1O .
**A:** 7290
